Hey, just so you know, these numbers are from PubChem BioAssay AID1159580.

- TEST DESCRIPTION: chemical genetic growth profiling, strain panel (AID 1159580);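 note: tested at 20 µM; growth read once vehicle control cultures reached saturation at 30 °C; lower values mean less growth of the strain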
- PROTOCOL CONDITIONS: S. cerevisiae deletion strains, growth OD, locus YKR026C, strain gcn3
In all, about 5,500 compounds went through this assay and about 2,000 (36%) were called active. Another 18% or so got no clear call; they are omitted. Cut-off read from the data, not from the text of the source: active = normalized growth mostly below about 0.91 (no sharp cut-off); inconclusive = no clear call, values can overlap the other calls; inactive = mostly above about 0.92. The list shows a part of the results.
Labels: active, inactive

>  <COMPOUND>
NC(N)=NCCN1CCCCCCC1

>  <CATEGORY LABEL>
inactive

$$$$
>  <COMPOUND>
O=C(O)[C@@H](S)[C@@H](S)C(=O)O

>  <CATEGORY LABEL>
inactive

$$$$
>  <COMPOUND>
COP(=S)(OC)Oc1ccc(Sc2ccc(OP(=S)(OC)OC)cc2)cc1

>  <CATEGORY LABEL>
inactive

$$$$
>  <COMPOUND>
CC(O)(P(=O)(O)O)P(=O)(O)O

>  <CATEGORY LABEL>
inactive

$$$$
>  <COMPOUND>
CC(C)=CC1C(C(=O)OCc2cccc(Oc3ccccc3)c2)C1(C)C (centres undefined)

>  <CATEGORY LABEL>
inactive

$$$$
>  <COMPOUND>
COP(=S)(OC)Oc1ccc([N+](=O)[O-])cc1

>  <CATEGORY LABEL>
inactive

$$$$
>  <COMPOUND>
O=C1CCCN1CC#CCN1CCCC1

>  <CATEGORY LABEL>
inactive

$$$$
>  <COMPOUND>
Cc1cc(/C=C/c2ccc3cc(N(C)C)ccc3[n+]2C)c(C)n1-c1ccccc1

>  <CATEGORY LABEL>
inactive

$$$$
>  <COMPOUND>
CCC(C)C(=O)c1c(O)c(C)c2oc3c(C)c(O)c(C(=O)C(C)CC)c(O)c3c2c1O (centres undefined)

>  <CATEGORY LABEL>
inactive

$$$$
>  <COMPOUND>
CC(C)(S)[C@@H](N)C(=O)O

>  <CATEGORY LABEL>
inactive

$$$$
>  <COMPOUND>
CC(=O)Oc1c2c(c(CC=C(C)C)c3c1C(=O)C1=C[C@@H]4CC5C(C)(C)OC(C/C=C(\C)C(=O)O)(C4=O)[C@@]15O3)OC(C)(CCC=C(C)C)C=C2 (some centres undefined)

>  <CATEGORY LABEL>
inactive

$$$$
>  <COMPOUND>
C[C@@H]1CC[C@H]2C(C)(C)C3CC12CC[C@@]3(C)O (some centres undefined)

>  <CATEGORY LABEL>
inactive

$$$$
>  <COMPOUND>
COc1cc(NS(C)(=O)=O)ccc1Cc1c2ccccc2nc2ccccc12

>  <CATEGORY LABEL>
inactive

$$$$
>  <COMPOUND>
COc1cc(C)c2c(=O)cc(-c3ccccc3)oc2c1

>  <CATEGORY LABEL>
active

$$$$
>  <COMPOUND>
NCCCCCC(=O)O

>  <CATEGORY LABEL>
inactive

$$$$
>  <COMPOUND>
Clc1ccc(C(Cn2ccnc2)OCc2ccsc2Cl)c(Cl)c1 (centres undefined)

>  <CATEGORY LABEL>
active

$$$$
>  <COMPOUND>
O=C(O)C(O)C(O)C(=O)O (centres undefined)

>  <CATEGORY LABEL>
inactive

$$$$
>  <COMPOUND>
O=c1oc2ccccc2cc1O

>  <CATEGORY LABEL>
inactive

$$$$
>  <COMPOUND>
CC(=O)O[C@H]1C[C@@]2(C)[C@@H](C[C@@H](O)C3[C@]2(C)CC[C@H]2[C@H](C)[C@H](O)CC[C@]32C)/C1=C(/CCC=C(C)C)C(=O)O (some centres undefined)

>  <CATEGORY LABEL>
inactive

$$$$
